# IC50 per record follows
Study target: ALK5 (Homo sapiens, UniProt P36897)
Construct: An expression construct containing full-length ALK5 C-terminally tagged with HA was transfected into COS7 cells; isolated by anti-HA immunoprecipitation)
Sequence (P36897 34-503): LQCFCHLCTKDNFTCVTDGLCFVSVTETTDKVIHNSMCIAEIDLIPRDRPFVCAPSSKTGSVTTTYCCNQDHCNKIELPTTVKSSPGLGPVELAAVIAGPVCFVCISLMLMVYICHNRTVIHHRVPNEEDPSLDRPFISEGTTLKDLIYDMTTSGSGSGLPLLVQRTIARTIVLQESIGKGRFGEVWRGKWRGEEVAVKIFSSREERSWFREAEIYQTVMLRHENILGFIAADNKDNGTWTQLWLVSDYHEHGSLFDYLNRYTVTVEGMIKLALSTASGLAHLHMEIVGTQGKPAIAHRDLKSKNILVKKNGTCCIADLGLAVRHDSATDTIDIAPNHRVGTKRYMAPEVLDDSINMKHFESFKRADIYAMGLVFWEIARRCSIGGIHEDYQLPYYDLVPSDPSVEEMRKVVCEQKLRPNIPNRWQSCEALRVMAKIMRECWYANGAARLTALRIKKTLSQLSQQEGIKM
Assay comment: TGF-β (ALK5) phosphorylation: GST-ALK5 autophosphorylation screen and in vitro kinase of HA-ALK5 (IC50)
Protocol: The autophosphorylation of GST-ALK5 was developed for primary screening of the compounds that inhibit TGF-β signaling by interacting with ALK5. […] For detection of GST-ALK5 autophosphorylation and screening of inhibitory compounds, an aliquot of GST-ALK5 in 1× kinase buffer including [^33P]-γ-ATP was added to 96-well plates in the presence or absence of compounds. […] The Filterplate was then washed 3 times and radioactivity in each well was counted in a Packard TopCount. […]

[
  {
    "Structure notation": "Fc1c(-c2cccc(Cl)c2)nc2ccccc2c1Nc1ccncc1",
    "IC50": "< 10 µM"
  },
  {
    "Structure notation": "Fc1c(-c2ccc(Cl)s2)nc2ccccc2c1Nc1ccncc1",
    "IC50": "< 10 µM"
  },
  {
    "Structure notation": "Cc1ccc(-c2nc3ccccc3c(Nc3ccncc3)c2F)o1",
    "IC50": "< 10 µM"
  }
]
